- TARGET_OR_SYSTEM: PARK7 (Homo sapiens, UniProt Q99497)
- MEASUREMENT_NOTES: Hit validation and pure-compound testing in the PARK7 FP assay with JYQ-107
- Type: biochemical
- COND: crude compounds, 0.25 µM; read-out: % Inhibition 0.25 µM
Please mark condition met if the recorded inhibition at 0.25 µM is equal to or greater than 60%, and condition not met if it falls below.

# MOLECULE, TARGET_OR_SYSTEM, CATEGORY
measured = [
    ("N#CN1CC[C@@H](C(=O)Nc2nc3c(s2)CN(C(=O)Cc2cnn(-c4ccccc4)n2)CC3)C1 [Compound 217]", "PARK7 (Homo sapiens, UniProt Q99497)", "condition not met"),
    ("N#CN1CC[C@@H](C(=O)Nc2nc3c(s2)CN(C(=O)CCn2nc(C(F)(F)F)cc2C2CC2)CC3)C1 [Compound 333]", "PARK7 (Homo sapiens, UniProt Q99497)", "condition not met"),
    ("N#CN1CC[C@@H](C(=O)Nc2nc3c(s2)CN(C(=O)c2ccc(-c4ccccn4)s2)CC3)C1 [Compound 258]", "PARK7 (Homo sapiens, UniProt Q99497)", "condition not met"),
]

Qu. Entry N#CN1CC[C@@H](C(=O)Nc2nc3c(s2)CN(C(=O)c2cccc(S(=O)(=O)NCc4cccs4)c2)CC3)C1 [Compound 11] : is its inhibition at 0.25 µM no less than 60%?
Ans. condition not met

Qu. Identify whether the reported inhibition at 0.25 µM of the following molecule is 60% or greater: N#CN1CC[C@@H](C(=O)Nc2nc3c(s2)CN(C(=O)c2cccc(S(=O)(=O)NC4CC4)c2)CC3)C1 [Compound 59]
Ans. condition met

Qu. hey, is inhibition at 0.25 µM for this one >= 60%? N#CN1CC[C@@H](C(=O)Nc2nc3c(s2)CN(C(=O)c2cnc(-c4cccs4)s2)CC3)C1 [Compound 108]
Ans. condition met

Qu. Given the entry N#CN1CC[C@@H](C(=O)Nc2nc3c(s2)CN(C(=O)c2coc(C#Cc4ccccc4)c2)CC3)C1 [Compound 311] , answer whether its inhibition at 0.25 µM meets or surpasses 60%.
Ans. condition not met

----------
- TARGET_OR_SYSTEM: PARK7 (Homo sapiens)
- Sequence (Q99497 1-189): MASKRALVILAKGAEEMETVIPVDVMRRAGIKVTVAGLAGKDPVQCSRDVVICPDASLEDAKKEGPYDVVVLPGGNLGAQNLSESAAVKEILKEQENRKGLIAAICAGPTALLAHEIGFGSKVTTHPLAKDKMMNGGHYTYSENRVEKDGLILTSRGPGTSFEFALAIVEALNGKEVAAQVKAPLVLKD
- MEASUREMENT_NOTES: High-throughput screen of the crude compound library, PARK7 fluorescence polarization (FP) assay with FP reagent JYQ-107
- Format: biochemical
- COND: 1.25 µM, crude compound library, FP reagent JYQ-107; read-out: HTS FP assay %Inhibition (1.25 µM)
MEASUREMENT_KIND: inhibition at 1.25 µM (%)
I only need the number, in %, no unit after it.

In the examples that follow, each entry is paired with its recorded inhibition at 1.25 µM.
# MOLECULE, EXPERIMENTAL_VALUE
measured = [
    ("Cn1nc(C2CCC2)cc1C(=O)N1CCc2nc(NC(=O)[C@@H]3CCN(C#N)C3)sc2C1", 84.3),
    ("Cc1ccc(Br)c(C(=O)N2CCc3nc(NC(=O)[C@@H]4CCN(C#N)C4)sc3C2)c1", 83.3),
    ("N#CN1CC[C@@H](C(=O)Nc2nc3c(s2)CN(C(=O)CN2CCOCC2)CC3)C1", 72.7),
]

Qu. Fill blank: measured inhibition at 1.25 µM of the molecule N#CN1CC[C@@H](C(=O)Nc2nc3c(s2)CN(C(=O)c2ncsc2Cc2ccccc2)CC3)C1 is ____.
Ans. 82.9

Qu. Which inhibition at 1.25 µM is reported for this molecule? CCn1ccc(-c2cc(C(=O)N3CCc4nc(NC(=O)[C@@H]5CCN(C#N)C5)sc4C3)no2)n1
Ans. 78.3

Qu. Quick check: inhibition at 1.25 µM of N#CCC(=O)N1CCc2nc(NC(=O)[C@@H]3CCN(C#N)C3)sc2C1 ?
Ans. 49.3

Qu. Looking for the measured inhibition at 1.25 µM of N#CN1CC[C@@H](C(=O)Nc2nc3c(s2)CN(C(=O)c2nc(N4CCOCC4)ncc2Cl)CC3)C1 , can you help?
Ans. 70.8

Qu. Any idea what its inhibition at 1.25 µM is? The molecule is N#CN1CC[C@@H](C(=O)Nc2nc3c(s2)CN(C(=O)CCc2ccccc2Br)CC3)C1
Ans. 87.5

Qu. Which inhibition at 1.25 µM value belongs to N#CN1CC[C@@H](C(=O)Nc2nc3c(s2)CN(C(=O)c2cccc(C=O)c2)CC3)C1 ?
Ans. 81.4

Qu. What value of inhibition at 1.25 µM has been reported for the following molecule? N#CN1CC[C@@H](C(=O)Nc2nc3c(s2)CN(C(=O)c2ccc4c(c2)OCO4)CC3)C1
Ans. 78.4

Qu. Quick check: inhibition at 1.25 µM of N#CN1CC[C@@H](C(=O)Nc2nc3c(s2)CN(C(=O)C(Cl)(Cl)Cl)CC3)C1 ?
Ans. 6.9

Qu. Which inhibition at 1.25 µM value is on record for Cc1ncc(C(=O)N2CCc3nc(NC(=O)[C@@H]4CCN(C#N)C4)sc3C2)s1 ?
Ans. 76

Qu. Entry CC(=O)CCCCC(=O)N1CCc2nc(NC(=O)[C@@H]3CCN(C#N)C3)sc2C1 has what inhibition at 1.25 µM?
Ans. 74

Qu. Entry COCC(=O)N1CCc2nc(NC(=O)[C@@H]3CCN(C#N)C3)sc2C1 has what inhibition at 1.25 µM?
Ans. 67.9

Qu. Need inhibition at 1.25 µM of N#CN1CC[C@@H](C(=O)Nc2nc3c(s2)CN(C(=O)CC2C(=O)Nc4ccccc42)CC3)C1 (stereo partly shown) , thanks.
Ans. 81.8

Qu. Which measured inhibition at 1.25 µM value corresponds to N#CN1CC[C@@H](C(=O)Nc2nc3c(s2)CN(C(=O)c2cc(C=O)ccc2O)CC3)C1 ?
Ans. 63.9

----------
Entries and their inhibition at 1.25 µM values follow.
- TARGET_OR_SYSTEM: UniProtKB Q99497
- MEASUREMENT_NOTES: High-throughput screen of the crude compound library, PARK7 fluorescence polarization (FP) assay with FP reagent JYQ-107
- Format: biochemical
- COND: 1.25 µM, crude compound library; read-out: HTS FP assay %Inhibition (1.25 µM)

Qu. Request the reported inhibition at 1.25 µM associated with N#CN1CC[C@@H](C(=O)Nc2nc3c(s2)CN(C(=O)c2cc(-c4cccc(Cl)c4)no2)CC3)C1
Ans. 10.9%

Qu. Quick one: inhibition at 1.25 µM of N#CN1CC[C@@H](C(=O)Nc2nc3c(s2)CN(C(=O)c2cc(COc4ccc(F)cc4F)on2)CC3)C1 ?
Ans. 79.4%

Qu. inhibition at 1.25 µM lookup needed for N#CN1CC[C@@H](C(=O)Nc2nc3c(s2)CN(C(=O)Cc2coc(-c4cccs4)n2)CC3)C1 , thanks.
Ans. 87%

Qu. What inhibition at 1.25 µM value was documented for this molecule, Cc1onc(-c2ccccn2)c1C(=O)N1CCc2nc(NC(=O)[C@@H]3CCN(C#N)C3)sc2C1 ?
Ans. 68.5%

----------
- TARGET_OR_SYSTEM: PARK7 (Homo sapiens)
- MEASUREMENT_NOTES: High-throughput screen of the crude compound library, PARK7 fluorescence polarization (FP) assay with FP reagent JYQ-107
- Format: biochemical
- COND: 1.25 µM, crude compound library, FP reagent JYQ-107; read-out: HTS FP assay %Inhibition (1.25 µM)
MEASUREMENT_KIND: inhibition at 1.25 µM (%)
Give the quantity in %, number only.

# MOLECULE, TARGET_OR_SYSTEM, inhibition at 1.25 µM, %
data = [
    ("CCCC(=O)N1CCc2nc(NC(=O)[C@@H]3CCN(C#N)C3)sc2C1 [compound 394]", "PARK7 (Homo sapiens)", 70.5),
    ("N#CN1CC[C@@H](C(=O)Nc2nc3c(s2)CN(C(=O)C2CCCN(c4ncccc4C(F)(F)F)C2)CC3)C1 (stereo partly drawn) [compound 358]", "PARK7 (Homo sapiens)", 77.6),
    ("N#CN1CC[C@@H](C(=O)Nc2nc3c(s2)CN(C(=O)c2cccc(B(O)O)c2)CC3)C1 [compound 444]", "PARK7 (Homo sapiens)", 68.5),
    ("N#CN1CC[C@@H](C(=O)Nc2nc3c(s2)CN(C(=O)CCc2ccc(O)cc2)CC3)C1 [compound 438]", "PARK7 (Homo sapiens)", 74.4),
    ("N#CN1CC[C@@H](C(=O)Nc2nc3c(s2)CN(C(=O)c2ccc(CNC(=O)OCC4c5ccccc5-c5ccccc54)cc2)CC3)C1 [compound 448]", "PARK7 (Homo sapiens)", 63.9),
]

// switching to the query molecule
Qu. Endpoint output: inhibition at 1.25 µM of N#CN1CC[C@@H](C(=O)Nc2nc3c(s2)CN(C(=O)c2ccc4c(c2)ncn4C2CCCCO2)CC3)C1 (stereo partly drawn) [compound 471] . Value?
Ans. 80
